Values were extracted from the supplement of paper PMC7125110.

B1: glmS ribozyme (parent)
chain: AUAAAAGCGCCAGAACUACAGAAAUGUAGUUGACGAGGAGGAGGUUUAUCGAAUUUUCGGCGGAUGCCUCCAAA

variants of: B1; assay: self-cleavage kobs at 2500 uM GlcN6P; higher = faster cleavage; RNA array; conditions: with glucosamine-6-phosphate
Variants at the floor of the assay were thinned out.
quantity_name: self-cleavage kobs at 2500 uM GlcN6P

seq_text: AUAAAAGGGCCAGAACUACAGAAAUGUAGUUGACGAGGAGGAGGUUUAUCGAAUUAUCGGCUGAUGCCUCCAAA [C8G U56A G62U]
self-cleavage kobs at 2500 uM GlcN6P: < 1e-05 s⁻¹
//
seq_text: AUAAAAGCGCCAGAACUACAGAAAUGUAGUUGACGUGGAGGAAGUUUAUCGAAUUUUCGGCGGAUGCCUCCAAA [A36U G43A]
self-cleavage kobs at 2500 uM GlcN6P: < 1e-05 s⁻¹
//
seq_text: AUAAAAGCGCCAGAACUACAGAAAUGUAGUUGACGAGGAGGAGGUUUAUCGAAUUCUCGGUGGAUGCCUCCAAA [U56C C61U]
self-cleavage kobs at 2500 uM GlcN6P: < 1e-05 s⁻¹
//
seq_text: AUAAACGCGCCAGAACUACAGAAAUGUAGUUGACGAGGAGGAGGUUUAUCGCAUUUUCGGCGGAUGCCUCCAAA [A6C A52C]
self-cleavage kobs at 2500 uM GlcN6P: < 1e-05 s⁻¹
//
seq_text: AUAAAAGCGCCAGAACUACAGAAAUGUAGUUGACGAGCAGGAGGUUUAUCGAAUUUUCGGCGAAUGCCUCCAAA [G38C G63A]
self-cleavage kobs at 2500 uM GlcN6P: < 1e-05 s⁻¹
//
seq_text: AUAAAAUCGCCAGAACUACAGAAAUGUAGUUGACGAGGAGGAGGUUUAUCAAAUUUUCGGCGGAUGCCUCCAAA [G7U G51A]
self-cleavage kobs at 2500 uM GlcN6P: < 1e-05 s⁻¹

# input Respond only with self-cleavage kobs at 2500 uM GlcN6P recorded for AUAAAAGCGUGAGAACUACAGAAAUGUAGUUGACGAGGAGGAGGUUUAUCGAAUUUACGGCGGAUGCCUCCAAA [C10U C11G U57A]
# output < 1e-05 s⁻¹

# input Answer with reported self-cleavage kobs at 2500 uM GlcN6P of AUAAAAGCGCCAGAAUUACAGAAAUGUAGGUAACGAGGAGGAGGUUUAUCGAAUUUACGGUGGAUGCCUCCAAA [C16U U30G G32A U57A C61U]
# output < 1e-05 s⁻¹

# input Indicate its recorded self-cleavage kobs at 2500 uM GlcN6P; the variant in question is AUAAAAGUUCCAGAACUACAGAAAUGUAGUUGACGAGGAGGAGGUUUAUCGAAUUUUCGGCGGAUGCCUCCAAA [C8U G9U]
# output < 1e-05 s⁻¹

# input State, in one line, measured self-cleavage kobs at 2500 uM GlcN6P of AUAAAAGCGCUACAACUACAGAAAUGUAGUUGACGAGGAGGAGGUGUAUCGAAUUUUCGGCGGUUGCCUCCAAA [C11U G13C U46G A64U]
# output < 1e-05 s⁻¹

# input Complete the entry with self-cleavage kobs at 2500 uM GlcN6P for AUAAAAGGGCCAGAACUACAGAAAUGUAGUUGACGAGGAGGAGGUUUAUCGAAUUUUCGGCGGAUUCCUCCAAA [C8G G66U]
# output < 1e-05 s⁻¹

# input Note self-cleavage kobs at 2500 uM GlcN6P for the variant shown: AUAAAAGCGCUAGAAUUACAGAAAUGUAGUUGACGAGGAGGAGGUUUAUCGACUUUUCGGCGGAUGCAUGCAAA [C11U C16U A53C C68A C70G]
# output < 1e-05 s⁻¹

# input Return value of self-cleavage kobs at 2500 uM GlcN6P for input AUAAAAGUGCCAGAACUACAGAAAUGUAGAUGACGAGGUGGAGGUUUAUCGAAUUUUCGGCGGAUGCCUCCAAA [C8U U30A A39U] , no commentary.
# output < 1e-05 s⁻¹
